assay: Ex vivo drug permeation, everted ileum sac model; format: in vitro ADME, Sprague–Dawley (SD) rats; details: male, Sprague-Dawley, pH 7.4; everted rat ileum sac, 1 h
Where a name gives a salt, the structure may show the parent alone.
quantity name: Papp at 1 h (×10⁻⁶ cm/s)
Number in ×10⁻⁶ cm/s, nothing else.

// query What Papp at 1 h value was documented for this compound, CN1CC2c3ccccc3Oc3ccc(Cl)cc3C2C1 (stereo not shown) [ASPM, Asenapine maleate] ?
// result 291

----------
experiment: Oral pharmacokinetic study in rats; type: in vivo, Sprague–Dawley (SD) rats; details: male, Sprague-Dawley, rat, plasma, po; SD rats, 5 mg/kg ASPM orally, n = 6
Where a name gives a salt, the structure may show the parent alone.
quantity name: k el (s⁻¹)
Numeric answer only, unit s⁻¹ assumed.

// query Dear colleague, I am looking for the recorded k el of the following compound: CN1CC2c3ccccc3Oc3ccc(Cl)cc3C2C1 (stereo not shown) [ASPM, Asenapine maleate]
// result 7.53e-06
